Molecular target: 4-hydroxyphenylpyruvate dioxygenase (Arabidopsis thaliana, UniProt P93836)
Sequence (P93836 whole entry): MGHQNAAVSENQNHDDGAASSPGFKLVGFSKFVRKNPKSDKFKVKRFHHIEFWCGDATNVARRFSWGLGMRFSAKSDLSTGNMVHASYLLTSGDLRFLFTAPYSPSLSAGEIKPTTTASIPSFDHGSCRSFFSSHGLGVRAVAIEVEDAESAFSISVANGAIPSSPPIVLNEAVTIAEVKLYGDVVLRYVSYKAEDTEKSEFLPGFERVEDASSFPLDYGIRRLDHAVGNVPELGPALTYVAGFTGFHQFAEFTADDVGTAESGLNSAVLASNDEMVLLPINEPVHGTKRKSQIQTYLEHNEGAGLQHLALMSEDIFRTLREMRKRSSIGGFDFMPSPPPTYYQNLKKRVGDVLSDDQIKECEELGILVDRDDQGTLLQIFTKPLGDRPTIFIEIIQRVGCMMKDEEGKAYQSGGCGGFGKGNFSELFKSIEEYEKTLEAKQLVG
Assay: Inhibition of recombinant Arabidopsis thaliana HPPD overexpressed in Escherichia coli JM105 cells using 4-HPP as substrate preincubated for 15 mins followed by substrate addition and subsequent incubation for 15 mins by HPLC analysis
Conditions: read-out: I50
PROPERTY_LABEL: IC50 (nM)
Express the result in nM but write the number alone.

INPUT: Using the record for `CC1(C)C(=O)C(C(=O)CCc2ccccc2)=C(O)C(C)(C)C1=O` , report its IC50.
OUTPUT: 750

// data source = ChEMBL document CHEMBL3808370
